Tested on: Caenorhabditis elegans N2
Test: mean nematode size ln(EXT) after 48 h, plate-adjusted (DMSO control set to 6) (ln(EXT), control-adjusted); higher = larger nematodes / less growth inhibition
Conditions: 10 µM; exposure time 48 h
Counter-ions that a name gives are not always drawn.
property name: mean nematode size ln(EXT) (ln)
Reply: number alone, nothing else.

(Q) Look up and report measured mean nematode size ln(EXT) (ln) (Caenorhabditis elegans N2) for the following compound: C=C(C)CN(CC)c1c([N+](=O)[O-])cc(C(F)(F)F)cc1[N+](=O)[O-] [Ethalfluralin]
(A) 5.8

(Q) Specify mean nematode size ln(EXT) (ln) for OCCOCCO [Diethylene glycol] , system Caenorhabditis elegans N2.
(A) 5.86

(Q) Enter recorded mean nematode size ln(EXT) (ln) with Caenorhabditis elegans N2 for O=Cc1ccco1 [Furfural] here.
(A) 5.91

Next:
(Q) # return mean nematode size ln(EXT) (ln) for CCc1ccc(CCOc2ccc(CC3SC(=O)NC3=O)cc2)nc1 (centres undefined) [Pioglitazone HCl] , test system: Caenorhabditis elegans N2
(A) 5.96

(Q) Report mean nematode size ln(EXT) (ln) on Caenorhabditis elegans N2 for this entry: O=S(=O)(O)C(F)(F)C(F)(F)C(F)(F)C(F)(F)C(F)(F)C(F)(F)F [Potassium perfluorohexanesulfonate]
(A) 5.85

(Q) Enter mean nematode size ln(EXT) (ln) (test system Caenorhabditis elegans N2) for O=C(Nc1ccc([N+](=O)[O-])cc1Cl)c1cc(Cl)ccc1O [Niclosamide]
(A) 6.1
